The entries below come with measured cytotoxicity at 70.5 h values attached.
- assay.remarks: Human HepG2 cell viability assay in 384 well format
- Assay type: toxicity, cell-based
- Set-up: dose 125 nL, time 70.5 hour; concentration not given beside the values
- conditions.used: HepG2 cells, read-out: Inhibition
Note: unit % is implicit; provide only the numeric part.

The examples below pair each entry with its known result.
CCn1cncc1-c1nc2c([nH]1)CC(C)(C)CNC2=O = -3.18
OCc1ccc(-c2nccn2CCc2nc3c(s2)CCCC3)o1 = 9.89
c1cnc(N2CC3(CCN(Cc4cccnc4)C3)C2)nc1 = 9.91
CCC(O)CN1CCN(C(=O)CCSC)CC1 (centres undefined) = 0.756

Query: Give cytotoxicity at 70.5 h for CCN(Cc1ccoc1)C(=O)Nc1ccccc1CN1CCOCC1
Result: 7.89

Query: Read off the recorded cytotoxicity at 70.5 h for COCC1c2nnn(CC3CC3)c2CCN1C(=O)c1cccc(F)c1 (centres undefined)
Result: -6.77

Query: Provide one value: measured cytotoxicity at 70.5 h of Cc1cc(N2CCC3(CCCN(CCO)C3=O)C2)nc2ccccc12 (centres undefined)
Result: -26.3

Query: Supply recorded cytotoxicity at 70.5 h for CCC(NC(N)=O)c1ccccc1OCC(=O)N1CCCC1 (centres undefined) here.
Result: -10.1

Query: Using known records, supply cytotoxicity at 70.5 h for O=C(Nc1cccnc1)[C@H]1CN(Cc2cccs2)C[C@H]2OCC[C@@H]12
Result: -10.8

Query: Look up and state reported cytotoxicity at 70.5 h for COCC(C)(CCO)NC(=O)Nc1c(F)cccc1Br (centres undefined)
Result: 1.51

Query: For the molecule O=C(CN1C(=O)CCNC1=O)N1CCOC(c2ccc(Cl)c(Cl)c2)C1 (centres undefined) , give its reported cytotoxicity at 70.5 h.
Result: -10.7

Query: Return value of cytotoxicity at 70.5 h for input COc1ccc2nc(O)c(CN(C)Cc3ncc[nH]3)cc2c1 , no commentary.
Result: 1.48

Query: For the molecule O=C(NC(C1CC1)C1CC1)c1cccc[n+]1[O-] , give its measured cytotoxicity at 70.5 h value.
Result: -2.48

Query: Please supply the value of reported cytotoxicity at 70.5 h for the item Cn1c(=O)oc2cc(Nc3nccnc3C#N)ccc21
Result: -2.2

Query: Give a short answer stating reported cytotoxicity at 70.5 h for CC(C)(C)NC(=O)CN1CCCN(Cc2cc(C#N)ccc2F)CC1 .
Result: 4.54

Query: Please give the documented cytotoxicity at 70.5 h of Cn1cnc2c1C(C(=O)N1CCCC1)N(S(C)(=O)=O)CC2 (centres undefined)
Result: -7.56

Query: Identify measured cytotoxicity at 70.5 h corresponding to CCOc1ccccc1C(C(=O)O)N(C)Cc1nc(C)c[nH]1 (centres undefined)
Result: -6.68

Query: Please list cytotoxicity at 70.5 h recorded for the molecule Cn1ncc(C(=O)O)c1C(=O)Nc1nc2ccc(Br)cc2s1
Result: 14.8

Query: Consider the molecule CC(C)=CCN1CCN(Cc2cc(C)n[nH]2)CC1CCO (centres undefined) and give its recorded cytotoxicity at 70.5 h.
Result: 4.87

Query: Tell me measured cytotoxicity at 70.5 h for O=C(NCCOc1ccc2c(c1)OCO2)N1CCCC(CO)C1 (centres undefined) please.
Result: -10

Query: Specify cytotoxicity at 70.5 h for CC(C)(C)n1cc(C2=CCN(CCN3CCCCCC3)CC2)cn1 and stop.
Result: -4.69

Query: Please report the measured cytotoxicity at 70.5 h for CC(C)N(CCO)C(=O)C1CCC(=O)N(CCc2ccc(Cl)cc2)C1 (centres undefined)
Result: -1.21

Query: Please give measured cytotoxicity at 70.5 h of the following entry: CC(C)c1ncc2c(n1)CN(c1ncnc3[nH]ccc13)CC2
Result: 17.1

Query: Retrieve cytotoxicity at 70.5 h measured for CC(C)(C)c1cnc(CN2CCCS(=O)(=O)CC2)o1 and print it.
Result: -1.34

Query: Give cytotoxicity at 70.5 h for the following molecule: CCOC(=O)[C@H]1CNC[C@H]1C(=O)OCC
Result: -2.7

All figures here come from ChEMBL document CHEMBL3507680.
